assayed.target: human histamine H3 receptors (Homo sapiens)
Sequence (Q9Y5N1 whole entry): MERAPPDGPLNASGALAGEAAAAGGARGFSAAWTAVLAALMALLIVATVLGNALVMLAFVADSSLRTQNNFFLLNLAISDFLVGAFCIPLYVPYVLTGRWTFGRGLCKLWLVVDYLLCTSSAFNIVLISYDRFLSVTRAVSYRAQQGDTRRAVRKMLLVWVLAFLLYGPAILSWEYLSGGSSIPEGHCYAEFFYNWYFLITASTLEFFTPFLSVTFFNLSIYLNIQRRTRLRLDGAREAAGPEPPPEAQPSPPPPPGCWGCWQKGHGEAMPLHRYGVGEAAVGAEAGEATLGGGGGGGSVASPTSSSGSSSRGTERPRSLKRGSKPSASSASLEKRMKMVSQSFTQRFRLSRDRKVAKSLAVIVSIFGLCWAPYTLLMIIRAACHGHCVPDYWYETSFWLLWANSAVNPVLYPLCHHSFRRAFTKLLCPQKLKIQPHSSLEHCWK
pKd: −log10 of the molar value.

{"compound": "Ic1ccc(COCCCc2cnc[nH]2)cc1 [[^125]iodoproxyfan]", "pKd": 10.11}
